Measured values drawn from paper PMC8588310 for this set.

- assayComment: Single dose PK study in male CD-1 mice
- Type: in vivo, mouse
- reportedConditions: mouse, whole blood, 3 mg/kg po vs 0.33 mg/kg iv
Give bioavailability for every item shown.
Quote the value and follow it with the unit of measurement.

Known results for compounds:
CS(=O)(=O)Nc1cccc(-c2ccc3c(c2)N(CC(F)(F)F)C(=O)COC3)c1 : 38%
CC(C)N1C(=O)COCc2ccc(-c3cccc(NS(C)(=O)=O)c3)cc21 : 28%

// next entry
Value lookup for bioavailability; key = CS(=O)(=O)Nc1cccc(-c2ccc3c(c2)N(c2ccccc2)C(=O)COC3)c1
15%

====

- assayComment: Caco-2 permeability
- Type: in vitro ADME
- reportedConditions: human; Caco-2 cell permeability
- Description: Determination of semi-thermodynamic solubility, metabolic stability in S9 fraction, Caco-2 permeability and PPB were performed by Cyprotex Ltd. (www.cyprotex.com, accessed on 22 October 2021) using their standard assays and as described on their website.
reportedProperty: Papp (×10⁻⁶ cm/s)
Numbers only, in ×10⁻⁶ cm/s.

Value lookup for Papp; key = CC(C)N1C(=O)COCc2ccc(-c3cccc(NS(C)(=O)=O)c3)cc21 [OXS007002]
31

====

- assayComment: Single dose PK study in male CD-1 mice
- Assay type: in vivo, mouse
- reportedConditions: mouse, whole blood, single dose 3 mg/kg po and 0.33 mg/kg iv, blood, route of parameter not given
reportedProperty: half-life (min)
Numbers only, in min.

Known results for compounds:
CC(C)N1C(=O)COCc2ccc(-c3cccc(NS(C)(=O)=O)c3)cc21 : 294
CS(=O)(=O)Nc1cccc(-c2ccc3c(c2)N(c2ccccc2)C(=O)COC3)c1 : 246

Value lookup for half-life; key = CS(=O)(=O)Nc1cccc(-c2ccc3c(c2)N(CC(F)(F)F)C(=O)COC3)c1
348

====

Give solubility thermodynamic for every item shown.
- assayComment: Semi-thermodynamic aqueous solubility
- Format: physicochemical
- reportedConditions: aqueous (buffer or water not specified), thermodynamic from solid
Give bare numbers, in µM.

Known results for compounds:
CS(=O)(=O)Nc1cccc(-c2ccc3c(c2)N(c2ccccc2)C(=O)COC3)c1 : 14
CS(=O)(=O)Nc1cccc(-c2ccc3c(c2)N(C2CCCC2)C(=O)COC3)c1 : 124
CS(=O)(=O)Nc1cccc(-c2ccc3c(c2)N(C2COC2)C(=O)COC3)c1 : 10

// next entry
Value lookup for solubility thermodynamic; key = CS(=O)(=O)Nc1cccc(-c2ccc3c(c2)N(CC(F)(F)F)C(=O)COC3)c1
33

====

Give solubility thermodynamic for every item shown.
- assayComment: Semi-thermodynamic aqueous solubility
- Type: physicochemical
- reportedConditions: aqueous (not further specified), thermodynamic from solid

Known results for compounds:
COC(=O)Nc1cccc(-c2ccc3c(c2)N(C(C)C)C(=O)COC3)c1 : 88 µM
COc1ccc(-c2ccc3c(c2)N(C(C)C)C(=O)COC3)cc1NS(C)(=O)=O : > 200 µM
Cc1ccc(-c2ccc3c(c2)N(C(C)C)C(=O)COC3)cc1NS(C)(=O)=O : > 200 µM

// next entry
Value lookup for solubility thermodynamic; key = CC(C)N1C(=O)COCc2ccc(-c3ccc(F)c(NS(C)(=O)=O)c3)cc21
> 200 µM

====

- assayComment: Plasma protein binding
- Assay type: in vitro ADME
- reportedConditions: % unbound, read-out: PPB, unbound
reportedProperty: fraction unbound
Give bare numbers.

Value lookup for fraction unbound; key = CC(C)N1C(=O)COCc2ccc(-c3cccc(NS(C)(=O)=O)c3)cc21
0.11
